Measured activation by item
- test description: Hsp70 promoter-driven reporter induction – cell-based, HeLa, Hsp70 promoter luciferase, luminescence, 10 µM, primary screen (AID 1203);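 further: 100% = MG132 at 30 µM as the positive control and 0% = DMSO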
- study conditions: at 10 µM, hits give high values, scaled: vehicle 0, proteasome-inhibitor control 100%
The campaign covered roughly 200,000 compounds. About 80 (0.04%) were called active. The entries come from a sample that favours actives as a whole.

compound: COC(=O)CN1C(=S)N(c2ccccc2)C(=O)C1CC(=O)Nc1ccc(Cl)cc1 (stereo unspecified)
activation / %: -0.13
--
compound: N=C1C(=O)OCC1c1ccccc1NC(=O)CN1CCCCC1 (stereo unspecified)
activation / %: -0.34
--
compound: Cc1nnc(SCC(=O)NNC(=O)c2ccc(Cl)cc2)n1CC1CCCO1 (stereo unspecified)
activation / %: -0.36
--
compound: CC(OC(=O)c1ccccc1OCc1ccc(Cl)cc1)C(N)=O (stereo unspecified)
activation / %: -0.14
--
compound: CCOC(=O)c1c(NC(=S)NC(=O)/C=C/c2cccs2)sc(C)c1C
activation / %: -0.28
--
compound: C=CCN(c1ccc(Cl)cc1)S(=O)(=O)c1cccc(C(=O)OCC(=O)N(C)C)c1
activation / %: -0.3
--
compound: O=C(NNC(=S)Nc1ccc(Br)cc1Cl)c1ccco1
activation / %: -0.21
--
compound: CC(C)(C)NCCCOc1ccc(Cl)cc1C(C)(C)C
activation / %: -0.26
--
compound: CCC(=O)OCc1c(C(F)(F)F)nn(C)c1Oc1cccc(C(F)(F)F)c1
activation / %: -0.27
--
compound: O=C(CCCN1C(=O)/C(=C/c2ccccc2)SC1=S)Nc1ccc(O)cc1
activation / %: -0.12
--
compound: O=C(CCC(=O)c1cccs1)NC1CCCCCC1
activation / %: -0.2

---

The reader will find reported activation values listed item by item below.
- test description: Hsp70 promoter-driven reporter induction – cell-based, HeLa, Hsp70 promoter luciferase, luminescence, 10 µM, primary screen (AID 1203);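 further: 100% = MG132 at 30 µM as the positive control and 0% = DMSO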
- study conditions: at 10 µM, hits give high values, scaled: vehicle 0, proteasome-inhibitor control 100%
About 80 (0.04%) of roughly 200,000 compounds were called active. Only a selection was taken, and actives are over-represented in it overall.

compound: Cc1ccc(CN2CCN(Cc3cccc(C)n3)CC2CCO)cc1 (centres undefined)
display unit: %
activation: 0.01
--
compound: Cc1ccc(NC(=O)c2cccnc2C(=O)Nc2ccc(C)cc2)cc1
display unit: %
activation: -0.14
--
compound: CCCC1CCC(=NNC(=S)NCCc2ccccc2)CC1 (centres undefined)
display unit: %
activation: -0.28
--
compound: CCNc1nc(NC(C)C)nc(N2CC(=O)N(CC(=O)OCC)C2=N)n1
display unit: %
activation: -0.19
--
compound: Cc1cc(C)cc(NC(=O)c2cccc(NC(=O)C3C4CC5OC(=O)C3C5C4)c2)c1 (centres undefined)
display unit: %
activation: 0.09
--
compound: COc1ccccc1C(=O)CSc1cccc[n+]1[O-]
display unit: %
activation: 0.19
--
compound: COc1ccc(Cn2c(=O)cc(C)[nH]c2=S)cc1
display unit: %
activation: 0.13
--
compound: C=CCn1cc(C(=O)NCc2ccc(Cl)cc2)c(=O)c2cc(S(=O)(=O)N(CC)CC)ccc21
display unit: %
activation: -0.11
--
compound: CN1C(=O)/C(=C/c2ccc(C(=O)NC3CCCC3)cc2)Oc2ccccc21
display unit: %
activation: 0.12
